Source: patent US10442807B2

System: ragweed (common ragweed, Ambrosia elation)
Protocol details: Test A preemergence, directed soil spray, visual injury rating
Format: in vivo
Test parameters: 500 g ai/ha, approx. 10 d, 0 = no effect, 100 = complete control
Source text: Seeds of plant species selected from barnyardgrass (Echinochloa crus-galli), kochia (Kochia scoparia), ragweed (common ragweed, Ambrosia elation), ryegrass, Italian (Italian ryegrass, Lolium multiflorum), foxtail, giant (giant foxtail, Setaria faberii), and pigweed (Amaranthus retroflexus), were planted into a blend of loam soil and sand and treated preemergence with a directed soil spray using test chemicals formulated in a non-phytotoxic solvent mixture which included a surfactant. […]
Ragweed plant response rating (0 to 100 scale) for assorted compounds
Measured quantity: Ragweed plant response rating (0 to 100 scale)

[
  {
    "Compound": "O=C(Nc1ccccc1F)C1c2nncn2CC1c1cccc(C(F)(F)F)c1 (stereo not shown) [Compound 2]",
    "Quantitative readout": 0
  },
  {
    "Compound": "CSc1ccccc1NC(=O)C1c2nncn2CC1c1ccc(C)c(C)c1 (stereo not shown) [Compound 18]",
    "Quantitative readout": 30
  },
  {
    "Compound": "CCc1ccc(C2Cn3cnnc3C2C(=O)Nc2cccc(F)c2C)cc1 (stereo not shown) [Compound 28]",
    "Quantitative readout": 30
  },
  {
    "Compound": "Cc1ccc(C2Cn3cnnc3C2C(=O)Nc2ccccc2F)cc1 (stereo not shown) [Compound 13]",
    "Quantitative readout": 80
  },
  {
    "Compound": "Cc1ccc(C2Cn3c(C)nnc3C2C(=O)Nc2ccccc2F)cc1 (stereo not shown) [Compound 27]",
    "Quantitative readout": 0
  },
  {
    "Compound": "Cc1ccc(C2Cn3c(C)nnc3C2C(=O)Nc2cccc(F)c2C)cc1C (stereo not shown) [Compound 10]",
    "Quantitative readout": 0
  },
  {
    "Compound": "CCc1ccc(C2Cn3cnnc3C2C(=O)Nc2ccccc2SC)cc1 (stereo not shown) [Compound 25]",
    "Quantitative readout": 0
  },
  {
    "Compound": "CCc1ccc(C2Cn3c(C)nnc3C2C(=O)Nc2cccc(F)c2C)cc1 (stereo not shown) [Compound 9]",
    "Quantitative readout": 0
  },
  {
    "Compound": "Cc1ccc(C2Cn3cnnc3C2C(=O)Nc2cccc(F)c2C)cc1C (stereo not shown) [Compound 26]",
    "Quantitative readout": 0
  },
  {
    "Compound": "O=C(Nc1cccc(F)c1F)C1c2nncn2CC1c1ccc(C(F)(F)F)cc1 (stereo not shown) [Compound 12]",
    "Quantitative readout": 50
  },
  {
    "Compound": "O=C(Nc1cccc(F)c1F)C1c2nncn2CC1c1ccc(Cl)cc1 (stereo not shown) [Compound 7]",
    "Quantitative readout": 50
  },
  {
    "Compound": "Cc1ccc(C2Cn3c(C)nnc3C2C(=O)Nc2cccc(F)c2F)cc1C (stereo not shown) [Compound 19]",
    "Quantitative readout": 0
  },
  {
    "Compound": "O=C(Nc1ccccc1F)C1C2=NCCCN2CC1c1cccc(C(F)(F)F)c1 (stereo not shown) [Compound 1]",
    "Quantitative readout": 0
  },
  {
    "Compound": "Cc1nnc2n1CC(c1ccc(Cl)cc1)C2C(=O)Nc1cccc(F)c1F (stereo not shown) [Compound 5]",
    "Quantitative readout": 40
  },
  {
    "Compound": "O=C(Nc1ccccc1F)C1c2nncn2CC1c1ccc(Cl)cc1 (stereo not shown) [Compound 20]",
    "Quantitative readout": 50
  },
  {
    "Compound": "O=C(Nc1ccccc1F)C1c2nccn2CC1c1cccc(C(F)(F)F)c1 (stereo not shown) [Compound 4]",
    "Quantitative readout": 0
  },
  {
    "Compound": "CCc1ccc(C2Cn3c(C)nnc3C2C(=O)Nc2cccc(F)c2F)cc1 (stereo not shown) [Compound 23]",
    "Quantitative readout": 0
  },
  {
    "Compound": "O=C(Nc1cccc(F)c1F)C1c2nnc(C(F)(F)F)n2CC1c1ccc(C(F)(F)F)cc1 (stereo not shown) [Compound 22]",
    "Quantitative readout": 0
  },
  {
    "Compound": "Cc1nnc2n1CC(c1ccc(C(F)(F)F)cc1)C2C(=O)Nc1ccccc1F (stereo not shown) [Compound 24]",
    "Quantitative readout": 30
  }
]
